# CC50 values compiled below
# Test system: HepG2 cells
# ASSAY_TEXT: in vitro
# Assay type: cell-based
# STATED_CONDITIONS: HepG2 or HepG2.117 cells, ATPlite, 3-days incubation (not marked with *), mean value; read-out: CC50 (μM, mean value)

Some solved cases for reference:
Query (molecule): CNc1noc2cc(-n3c(NC(C)C)nc4c(c3=O)C[C@@H](C)N(C(=O)c3ccc(Cl)c(Cl)c3)C4)c(C)cc12 (single isomer, unassigned) [Compound C447a] ; field requested: CC50
> 50 µM

Name the reported CC50 value associated with the molecule CNC(=O)c1ccc(-n2c(N[C@@H](C)c3ccccc3)nc3c(c2=O)C[C@@H](C)N(C(=O)c2ccc(Cl)c(Cl)c2)C3)c(Cl)c1 (single isomer, unassigned) [Compound C386b]
> 50 µM

Given the molecule CCc1cc(C(=O)NC)ccc1-n1c(NC(C)C)nc2c(c1=O)C[C@@H](C)N(C(=O)c1ccc(Cl)c(Cl)c1)C2 (single isomer, unassigned) [Compound C383b] , what is its reported CC50?
> 45 µM

# next molecule below
# get_value(readout='CC50', item= CNC(=O)c1ccc(-n2c(NC(C)C)nc3c(c2=O)C[C@@H](C)N(C(=O)c2ccc(Cl)c(C(F)(F)F)c2)C3)c(OC)c1 (single isomer, unassigned) [Compound C643a] )
> 50 µM
